Data origin, for the record: ChEMBL document CHEMBL5046253

Below: a set of entries, each annotated with reported pIC50.
# tested_on: Phosphatidylinositol 4,5-bisphosphate 3-kinase catalytic subunit gamma isoform (Homo sapiens)
# Sequence (P48736 whole entry, canonical isoform): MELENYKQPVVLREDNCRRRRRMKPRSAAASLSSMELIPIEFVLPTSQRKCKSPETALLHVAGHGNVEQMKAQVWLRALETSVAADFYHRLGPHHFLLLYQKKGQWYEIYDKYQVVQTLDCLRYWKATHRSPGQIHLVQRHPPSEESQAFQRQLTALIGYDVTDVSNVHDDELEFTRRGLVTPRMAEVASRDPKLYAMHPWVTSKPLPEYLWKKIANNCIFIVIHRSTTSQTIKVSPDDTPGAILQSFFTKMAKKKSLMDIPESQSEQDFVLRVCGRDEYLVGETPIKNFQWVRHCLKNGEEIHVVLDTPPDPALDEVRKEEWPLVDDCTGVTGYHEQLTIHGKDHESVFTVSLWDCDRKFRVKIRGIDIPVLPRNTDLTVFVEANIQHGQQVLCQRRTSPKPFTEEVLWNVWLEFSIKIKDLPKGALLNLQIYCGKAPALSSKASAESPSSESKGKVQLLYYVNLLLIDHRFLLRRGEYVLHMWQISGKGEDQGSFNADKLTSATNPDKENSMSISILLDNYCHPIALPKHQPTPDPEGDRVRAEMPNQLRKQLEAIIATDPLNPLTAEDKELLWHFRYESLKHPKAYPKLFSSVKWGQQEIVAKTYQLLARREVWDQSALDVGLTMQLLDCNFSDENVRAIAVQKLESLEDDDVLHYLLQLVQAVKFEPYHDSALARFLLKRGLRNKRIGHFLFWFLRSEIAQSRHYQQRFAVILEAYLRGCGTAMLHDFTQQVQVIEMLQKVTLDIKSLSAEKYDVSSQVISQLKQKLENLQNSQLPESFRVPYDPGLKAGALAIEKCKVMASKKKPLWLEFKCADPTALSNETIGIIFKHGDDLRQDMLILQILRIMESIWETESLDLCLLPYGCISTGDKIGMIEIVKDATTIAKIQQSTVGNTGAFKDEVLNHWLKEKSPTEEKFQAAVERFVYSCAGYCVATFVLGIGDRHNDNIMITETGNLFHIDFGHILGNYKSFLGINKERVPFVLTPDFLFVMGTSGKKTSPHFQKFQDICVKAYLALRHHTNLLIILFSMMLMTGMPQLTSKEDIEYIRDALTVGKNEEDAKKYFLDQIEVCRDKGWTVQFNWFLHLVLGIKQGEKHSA
# assay_summary: Inhibition of PI3Kgamma (unknown origin) using PIP2 as substrate in presence of ATP incubated for 60 mins by ADP-glo based luminescence assay
Quick note: pIC50 means taking -log10 of the concentration in moles per liter.

Example cases with answers are listed next.
compound=NC(=O)[C@H]1CCCN1C(=O)c1ccc(NC(=O)Nc2ccc(-c3nc(N4CCOCC4)nc(N4CCOCC4)n3)cc2)cc1 metric_name=pIC50 observed=8.13
compound=C[C@@H](NC(=O)c1ccc(NC(=O)Nc2ccc(-c3nc(N4CCOCC4)nc(N4CCOCC4)n3)cc2)cc1)C(N)=O metric_name=pIC50 observed=7.55
compound=CN(C)[C@@H]1C[C@@H](C(N)=O)N(C(=O)c2ccc(NC(=O)Nc3ccc(-c4nc(N5CCOCC5)nc(N5CCOCC5)n4)cc3)cc2)C1 metric_name=pIC50 observed=7.71
compound="NC(=O)[C@@H]1CC(O)CN1C(=O)c1ccc(NC(=O)Nc2ccc(-c3nc(N4CCOCC4)nc(N4CCOCC4)n3)cc2)cc1 (stereo partly specified)" metric_name=pIC50 observed=7.01
compound=NC(=O)[C@@H]1CCCN1C(=O)c1ccc(NC(=O)Nc2ccc(-c3nc(N4CCOCC4)nc(N4CCOCC4)n3)cc2)cc1 metric_name=pIC50 observed=8.06

Pending compound:
Asked: Note pIC50 for the compound shown: C[C@H](NC(=O)c1ccc(NC(=O)Nc2ccc(-c3nc(N4CCOCC4)nc(N4CCOC[C@@H]4C)n3)cc2)cc1)C(N)=O
Given back: 7.47

====

# Test system: MDA-MB-231
# assay_summary: Antiproliferative activity against human MDA-MB-231 cells assessed as reduction in cell viability incubated for 48 hrs by MTT assay
# Format: functional, cell-based
# test_parameters: MDA-MB-231, 48 h
Binary label based on IC50 with cut-off 6000 nM: below gives true, not below gives false.

Example entries begin here.
molecule=C[C@H]1COCCN1c1nc(-c2ccc(NC(=O)Nc3ccc(C(=O)N4CCC(C(N)=O)CC4)cc3)cc2)nc(N2CCOCC2)n1 tested_on=MDA-MB-231 qualitative_label=true
molecule=NC(=O)[C@@H]1CCCN1C(=O)c1ccc(NC(=O)Nc2ccc(-c3nc(N4CCOCC4)nc(N4CCOCC4)n3)cc2)cc1 tested_on=MDA-MB-231 qualitative_label=false
molecule=NC(=O)[C@@H]1CCCN1C(=O)c1ccc(NC(=O)Nc2ccc(-c3nc(N4CCOCC4)nc(N4C[C@@H]5OCCO[C@H]5C4)n3)cc2)cc1 tested_on=MDA-MB-231 qualitative_label=true
molecule=NC(=O)[C@@H]1C[C@@H]2C[C@@H]2N1C(=O)c1ccc(NC(=O)Nc2ccc(-c3nc(N4CCOCC4)nc(N4CCOCC4)n3)cc2)cc1 tested_on=MDA-MB-231 qualitative_label=false
molecule="NC(=O)[C@@H]1CC(O)CN1C(=O)c1ccc(NC(=O)Nc2ccc(-c3nc(N4CCOCC4)nc(N4CCOCC4)n3)cc2)cc1 (some centres not stated)" tested_on=MDA-MB-231 qualitative_label=false

Asked: API: query returns whether the molecule falls strictly under 6000 nM in IC50. Query: NC(=O)C1CCCN(C(=O)c2ccc(NC(=O)Nc3ccc(-c4nc(N5CCOCC5)nc(N5CCOCC5)n4)cc3)cc2)C1 (configuration not stated)
Given back: true

Asked: # strict comparison: is reported IC50 < 6000 nM? input = C[C@@H](NC(=O)c1ccc(NC(=O)Nc2ccc(-c3nc(N4CCOCC4)nc(N4CCOCC4)n3)cc2)cc1)C(N)=O
Given back: true

====

# tested_on: Cytochrome P450 2C19 (Homo sapiens, UniProt P33261)
# Sequence (P33261 whole entry): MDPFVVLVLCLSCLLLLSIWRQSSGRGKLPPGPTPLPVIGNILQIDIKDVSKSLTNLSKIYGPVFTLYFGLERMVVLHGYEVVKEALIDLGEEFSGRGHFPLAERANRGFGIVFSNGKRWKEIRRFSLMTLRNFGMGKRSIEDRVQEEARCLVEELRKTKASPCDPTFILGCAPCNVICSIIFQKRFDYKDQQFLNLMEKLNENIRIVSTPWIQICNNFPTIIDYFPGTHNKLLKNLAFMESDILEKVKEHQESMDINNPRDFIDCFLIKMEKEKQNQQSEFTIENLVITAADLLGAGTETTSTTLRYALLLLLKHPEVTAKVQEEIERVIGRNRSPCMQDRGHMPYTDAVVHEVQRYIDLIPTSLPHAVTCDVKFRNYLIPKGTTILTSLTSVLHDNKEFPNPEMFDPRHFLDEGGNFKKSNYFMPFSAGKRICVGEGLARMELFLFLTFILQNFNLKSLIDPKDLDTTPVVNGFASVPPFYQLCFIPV
pIC50: −log10 of the molar value.
metric_name: pIC50

Asked: State its pIC50 for this molecule: NC(=O)[C@@H]1CCCN1C(=O)c1ccc(NC(=O)Nc2ccc(-c3nc(N4CCOCC4)nc(N4CCOCC4)n3)cc2)cc1
Given back: < 4.30

====

# assay_summary: Selectivity index, ratio of IC50 for antiproliferative activity against human L02 cells to IC50 for antiproliferative activity against human HepG2 cells
# Format: toxicity, cell-based
# test_parameters: L02 cells versus HepG2 cells, read-out: Ratio IC50
metric_name: selectivity ratio
Answer as a number with no unit attached.

Asked: Supply measured selectivity ratio of NC(=O)[C@@H]1CCCN1C(=O)c1ccc(NC(=O)Nc2ccc(-c3nc(N4CCOCC4)nc(N4CCOCC4)n3)cc2)cc1 in your reply.
Given back: 6.6

====

# Tested on: NCI-H1975
# assay_summary: Antiproliferative activity against human NCI-H1975 cells harboring EGFR L858R/T790M double mutant assessed as reduction in cell viability incubated for 72 hrs by celltiter-glo assay
# Assay type: functional, cell-based
# test_parameters: NCI-H1975, 72 h
metric_name: IC50 (µM)
Report only the number, with the unit µM understood.

Examples with their reported IC50 follow.
compound=NC(=O)C1CCN(C(=O)c2ccc(NC(=O)Nc3ccc(-c4nc(N5CCOCC5)nc(N5CCOCC5)n4)cc3)cc2)CC1 metric_name=IC50 observed=2.44
compound=NC(=O)[C@@H]1CCCN1C(=O)c1ccc(NC(=O)Nc2ccc(-c3nc(N4CCOCC4)nc(N4CCOCC4)n3)cc2)cc1 metric_name=IC50 observed=0.217
compound="NC(=O)C1CCCN(C(=O)c2ccc(NC(=O)Nc3ccc(-c4nc(N5CCOCC5)nc(N5CCOCC5)n4)cc3)cc2)C1 (stereo unspecified)" metric_name=IC50 observed=0.601
compound=C[C@@H](NC(=O)c1ccc(NC(=O)Nc2ccc(-c3nc(N4CCOCC4)nc(N4CCOCC4)n3)cc2)cc1)C(N)=O metric_name=IC50 observed=3.36
compound=CN(C)[C@@H]1C[C@@H](C(N)=O)N(C(=O)c2ccc(NC(=O)Nc3ccc(-c4nc(N5CCOCC5)nc(N5CCOCC5)n4)cc3)cc2)C1 metric_name=IC50 observed=2.88

Asked: Note down IC50 recorded for NC(=O)[C@@H]1CC(O)CN1C(=O)c1ccc(NC(=O)Nc2ccc(-c3nc(N4CCOCC4)nc(N4CCOCC4)n3)cc2)cc1 (stereo partly specified)
Given back: 5.45

====

# assay_summary: AUC (0 to infinity) in Sprague-Dawley rat at 20 mg/kg, iv by LC-MS/MS analysis
# Format: ADME, organism-based
# Set-up: route intravenous, time infinity, dose 20 mg/kg
# test_parameters: in vivo
AUC(0-inf) values, listed per item
Please respond with the number in ng·h/mL and leave the unit unwritten.

Asked: Return value of AUC(0-inf) for input NC(=O)[C@@H]1CCCN1C(=O)c1ccc(NC(=O)Nc2ccc(-c3nc(N4CCOCC4)nc(N4CCOCC4)n3)cc2)cc1 , no commentary.
Given back: 30600

Asked: Check the records and state AUC(0-inf) for CN(C)C1CCN(C(=O)c2ccc(NC(=O)Nc3ccc(-c4nc(N5CCOCC5)nc(N5CCOCC5)n4)cc3)cc2)CC1 [GEDATOLISIB]
Given back: 42200

====

# System: MDA-MB-231
# assay_summary: Antiproliferative activity against human MDA-MB-231 cells assessed as reduction in cell viability incubated for 48 hrs by MTT assay
# Assay type: functional, cell-based
# test_parameters: MDA-MB-231, 48 h
Reported pIC50 by item:
Just so you know, pIC50 here is -log10 of the concentration in molar units; reply with that number alone.

Answered examples (5):
molecule="NC(=O)C1CCCN1C(=O)c1ccc(NC(=O)Nc2ccc(-c3nc(N4CCOCC4)nc(N4CCOCC4)n3)cc2)cc1 (stereo not drawn)" observed=5.17
molecule="NC(=O)C1CCCCN1C(=O)c1ccc(NC(=O)Nc2ccc(-c3nc(N4CCOCC4)nc(N4CCOCC4)n3)cc2)cc1 (stereo not drawn)" observed=5.25
molecule=NC(=O)[C@H]1CCCN1C(=O)c1ccc(NC(=O)Nc2ccc(-c3cc(N4CCOCC4)nc(N4CCOCC4)n3)cc2)cc1 observed=4.78
molecule="NC(=O)C1CCCCN1C(=O)c1ccc(NC(=O)Nc2ccc(-c3cc(N4CCOCC4)nc(N4CCOCC4)n3)cc2)cc1 (stereo not drawn)" observed=5.28
molecule=COC(=O)[C@@H]1CCCN1C(=O)c1ccc(NC(=O)Nc2ccc(-c3nc(N4CCOCC4)nc(N4CCOCC4)n3)cc2)cc1 observed=4.98

Asked: Determine from records and report pIC50 for CN(C)[C@H]1C[C@@H](C(N)=O)N(C(=O)c2ccc(NC(=O)Nc3ccc(-c4nc(N5CCOCC5)nc(N5CCOCC5)n4)cc3)cc2)C1
Given back: 4.72

Asked: Please give the documented pIC50 of CN(C)C1CCN(C(=O)c2ccc(NC(=O)Nc3ccc(-c4cc(N5CCOCC5)nc(N5CCOCC5)n4)cc3)cc2)CC1
Given back: 5.12

Asked: Give the value of pIC50 reported for the following: NC(=O)C1CCN(C(=O)c2ccc(NC(=O)Nc3ccc(-c4nc(N5CCOCC5)nc(N5CCOCC5)n4)cc3)cc2)CC1
Given back: 6.05
